Procedure Summary: Plasma vosaroxin pharmacokinetics in patients
Format: in vivo, human
Conditions Used: human, plasma, intravenous, 72 mg/m2, Vss, mean, weekly, Day 1, 72 mg/m^2, N 11, cycle 1
Assay Endpoint: Vd (L)

# Molecule Smiles, Unit Descriptor, Result
data = [
    ("CN[C@H]1CN(c2ccc3c(=O)c(C(=O)O)cn(-c4nccs4)c3n2)C[C@@H]1OC", "L", 130),
]

----------
Procedure Summary: Plasma vosaroxin pharmacokinetics in patients
Format: in vivo, human
Conditions Used: human, plasma, intravenous, T1/2, mean, twice weekly, Day 4, 9–50 mg/m^2, N 30, cycle 1
Assay Endpoint: half-life (h)

# Molecule Smiles, Result
records = [
    ("CN[C@H]1CN(c2ccc3c(=O)c(C(=O)O)cn(-c4nccs4)c3n2)C[C@@H]1OC", 28.2),
]
